All figures here come from the supplement of paper PMC10567573.

B1: CDC25A (parent)
chain: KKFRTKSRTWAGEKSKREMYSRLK

Variants of: B1
test: protein stability index of a GFP-peptide fusion (GPS, HEK-293T) (PSI 1-6); higher = more stable;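 also: lentivirally expressed fusions sorted by FACS into six bins by GFP to DsRed ratio, PSI derived from sequencing read proportions per bin multiplied by bin number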
setup-conditions: c terminus: a fixed tail appended
Hi there, I'd appreciate the recorded protein stability index for every entry that follows.
Give the figure by itself; no unit, no explanation.

What measured protein stability index goes with KKFRTKWRTWAGEKSKREMYSRLK [S7W] ?
3.06

Given the variant KKFRTKFRTWAGEKSKREMYSRLK [S7F] , what is its reported protein stability index?
2.4

Please look up its protein stability index: KKFRTKSRTWAGEKSKREMYSDLK [R22D]
2.49

// returns reported protein stability index for input KKFRTKSRTWAGEKSMREMYSRLK [K16M]
3.99

For the variant shown here, KKFRTKSRTWAGEKSKRESYSRLK [M19S] , give the reported protein stability index.
4.21

GET /values?readout=protein stability index&item= FKFRTKSRTWAGEKSKREMYSRLK [K1F]
2.37

Which protein stability index is listed for KKFRTKSRTWTGEKSKREMYSRLK [A11T] ?
3.22

Entry under review: KIFRTKSRTWAGEKSKREMYSRLK [K2I] . Reported protein stability index?
2.38

Find the recorded protein stability index belonging to KKFRTKSRTWAGEKSKREMTSRLK [Y20T] and report it.
3.41

Can you look up the measured protein stability index of KKFRTKSRTWAGEKHKREMYSRLK [S15H] for me?
3.12

Please report the recorded protein stability index for KKFRTKSRRWAGEKSKREMYSRLK [T9R] .
2.29

Name the reported protein stability index value associated with the variant KKFRTKSRTWHGEKSKREMYSRLK [A11H]
3.01

Which protein stability index is reported for this variant? KKFITKSRTWAGEKSKREMYSRLK [R4I]
2.3

Name the reported protein stability index value associated with the variant KKFRTKSRTWAGEKSKREMYSRLS [K24S]
3.16

What does the data say about its protein stability index? Entry: KCFRTKSRTWAGEKSKREMYSRLK [K2C]
2.38

Which protein stability index is listed for KKFRTKSRQWAGEKSKREMYSRLK [T9Q] ?
2.67

Would you kindly share the measured protein stability index for KKFRTKSRTDAGEKSKREMYSRLK [W10D] ?
3.9

// protein stability index lookup, key: KKFRTKSRTWAGEKSKRNMYSRLK [E18N]
3

I would be grateful if you could share the reported protein stability index for KKFRTKSRTWAGEKSKREMYRRLK [S21R] .
2.73

Data request, read-out protein stability index, for KKFRTKSRTWAGEKSKREMYKRLK [S21K]
3.08

What value of measured protein stability index is listed for KKFRTKSRTWAGEKSKREMYLRLK [S21L] ?
3.38

May I ask what protein stability index has been recorded for KKFRTKSRTWAGEKSKREMYSRLM [K24M] ?
2.37

Which protein stability index is reported for this variant? KKFRTKSRTWAGEKSKREMYSRLG [K24G]
2.52

Which protein stability index reading was recorded for the variant KKFRTKSRTWAGEKSKLEMYSRLK [R17L] ?
2.84

Can you share its protein stability index? I mean this variant: KKFRTKSRTWAGYKSKREMYSRLK [E13Y]
3.25

Please give the measured protein stability index for this variant: KKFRTKSRTWGGEKSKREMYSRLK [A11G]
3.2

Query (variant): KKFRTKSRTWAGEKSKREMYSRRK [L23R] ; field requested: protein stability index
4.46

Form field: reported protein stability index of RKFRTKSRTWAGEKSKREMYSRLK [K1R]
3.04

Endpoint output: protein stability index of KKFRTKSRTWAGEKSKRYMYSRLK [E18Y] . Value?
1.9

# lookup: protein stability index of KKFRTKSRTWAGKKSKREMYSRLK [E13K]
3.49

Return reported protein stability index; argument: KKFRTKSRTWAKEKSKREMYSRLK [G12K]
2.42

Find the recorded protein stability index belonging to KKFRTKDRTWAGEKSKREMYSRLK [S7D] and report it.
3.24

Fill in the blank: the reported protein stability index of KKFRTKSRTWAGEMSKREMYSRLK [K14M] is ____.
3.07

I have this variant here, KKFRTKSVTWAGEKSKREMYSRLK [R8V] , and I need its recorded protein stability index.
3.32

So what does the record say about protein stability index for KKFRTKSRTWAGEKSKREMYQRLK [S21Q] ?
2.54

Which protein stability index is reported for this variant? KKFRTKSRTWAGEKSKREMYSRLQ [K24Q]
2.58

I am curious: what protein stability index value has been reported for KKFRTKSRFWAGEKSKREMYSRLK [T9F] ?
3.17

What does the record list as protein stability index for KKFRTKSRTWAGEKSKREMYSALK [R22A] ?
2.19

Would you kindly share the measured protein stability index for KKWRTKSRTWAGEKSKREMYSRLK [F3W] ?
3.48

Which protein stability index is listed for KKFETKSRTWAGEKSKREMYSRLK [R4E] ?
3.76

I would be grateful if you could share the reported protein stability index for KKFRTKSRTWAGEKSKREMYSRLD [K24D] .
3.13

# input variant: KKFRTKSRTSAGEKSKREMYSRLK [W10S] ; wanted: its protein stability index
2.79

Could you share which protein stability index value was measured for KKGRTKSRTWAGEKSKREMYSRLK [F3G] ?
3.49

Query: protein stability index; subject: KKFRTKSNTWAGEKSKREMYSRLK [R8N]
3.38

Fill blank: measured protein stability index of the variant KKFRTKSRTWAGEKSKTEMYSRLK [R17T] is ____.
3.48

Request the reported protein stability index associated with KKFRTKSRTWAGEKSGREMYSRLK [K16G]
2.79

Look at this variant and give its reported protein stability index. KKFRTKSRTWAGEKSKREFYSRLK [M19F]
3.53

What protein stability index value was documented for this variant, KKFRTKSRTWAGEKSRREMYSRLK [K16R] ?
1.22

Quick one: protein stability index for KKFRTKSRTWAGGKSKREMYSRLK [E13G] ?
3.29

Look up protein stability index for this variant: KKFRTKSRTWAGEKSKREMYSRLN [K24N]
3.32

Would you mind telling me what protein stability index value was observed for KKFRTKSRTNAGEKSKREMYSRLK [W10N] ?
3.6

Would you kindly share the measured protein stability index for KKFRTKSRTWAGEKSKREMYSYLK [R22Y] ?
2.03

Give the measured protein stability index of KKFRTFSRTWAGEKSKREMYSRLK [K6F] .
2.37

Using the record for KKFCTKSRTWAGEKSKREMYSRLK [R4C] , report its protein stability index.
3.02

Given KKFRTKSRTWACEKSKREMYSRLK [G12C] , state its recorded protein stability index.
2.61

Look at this variant and give its reported protein stability index. KKFRTKSRTWAGEKSKREMYSRLH [K24H]
2.62

I have this variant here, KKFRTKSWTWAGEKSKREMYSRLK [R8W] , and I need its recorded protein stability index.
4.2

I'd like to know its protein stability index. The variant in question is KKFRTKVRTWAGEKSKREMYSRLK [S7V]
2.01

Given the variant KKFRTKSRTWAGEKCKREMYSRLK [S15C] , what is its reported protein stability index?
3.4

Tell me the measured protein stability index of KKFRTKSRTWAGEKDKREMYSRLK [S15D] , please.
3.3

Fill blank: measured protein stability index of the variant KKFRTKSQTWAGEKSKREMYSRLK [R8Q] is ____.
3.37

Which protein stability index is reported for this variant? KKFRTKSRTWAIEKSKREMYSRLK [G12I]
2.43

Any idea what protein stability index was measured for KKFRGKSRTWAGEKSKREMYSRLK [T5G] ?
3.33

For the variant shown here, KKFRTISRTWAGEKSKREMYSRLK [K6I] , give the reported protein stability index.
2.01

Fill blank: measured protein stability index of the variant KKFRTKSRTWAGEKSKREMYARLK [S21A] is ____.
2.97

Reported protein stability index, variant KKFRTKSRTWAGEKSKREMYSRHK [L23H] : ____
3.39

I have this variant here, KKFRTKSRTWAGEKSKREMCSRLK [Y20C] , and I need its recorded protein stability index.
3.97

I have this variant here, KKFRTKSRTWAGTKSKREMYSRLK [E13T] , and I need its recorded protein stability index.
3.43

What value of protein stability index has been reported for the following variant? KKFRTKMRTWAGEKSKREMYSRLK [S7M]
2.42

Look up protein stability index: KKFRTKSRTWAGEKSKRKMYSRLK [E18K]
1.94

Can you share its protein stability index? I mean this variant: KKSRTKSRTWAGEKSKREMYSRLK [F3S]
3.48

What value of protein stability index has been reported for the following variant? KKFRTKSRTWAVEKSKREMYSRLK [G12V]
2.64
